Recorded PBM E-score of 8-mer, one value per entry.
- Test system: SpTbr T-box DNA-binding domain (GST fusion);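 note: protein at 200 nM in PBS on universal double-stranded arrays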
- Sequence: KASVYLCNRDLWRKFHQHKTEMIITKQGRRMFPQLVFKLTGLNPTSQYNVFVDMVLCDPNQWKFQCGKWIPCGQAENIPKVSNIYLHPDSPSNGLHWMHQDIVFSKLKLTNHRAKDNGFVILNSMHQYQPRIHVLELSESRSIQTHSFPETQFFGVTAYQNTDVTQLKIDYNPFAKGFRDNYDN
- ASSAY_PROCEDURE: PBM E-score of 8-mer (E-score (dimensionless, -0.5 to 0.5)); higher = stronger binding preference
- CONDITION_INFO: the construct has about 5 more residues each side
Over roughly 33,000 sequences, “E-score (dimensionless, -0.5 to 0.5)” has its median near -0.046; the highest 2% begin near 0.36. The entries come from a sample that favours the highest values as a whole.
READOUT_TYPE: PBM E-score of 8-mer

| CHAIN | OBSERVED_VALUE |
| --- | --- |
| AATCAGTC | -0.0936 |
| GGGGCGCA | -0.227 |
| CAAAAAAA | -0.154 |
| CGTGCACG | 0.00996 |
| GGCGAACC | -0.141 |
| CGCGAACG | 0.422 |
| CGACACCC | 0.416 |
| AGACACCC | 0.156 |
| AGTCTGGG | -0.278 |
| AGATGACG | 0.125 |
| CCCAGAAA | -0.216 |
| CGCGAAAG | 0.387 |
| CGACACCA | 0.387 |
| AGACACCA | 0.251 |
| GGACACCC | 0.185 |
| GTGCTAAC | 0.432 |
| GCGCTAAA | 0.338 |
| AGCGAAGA | 0.106 |
| GGACAACA | 0.0909 |
| GCATGTCC | -0.0875 |
| ACTTTTCT | 0.00466 |
| CTGCTAAC | 0.321 |

----------
- Tested on: SpTbr T-box DNA-binding domain (GST fusion);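 note: protein at 200 nM in PBS on universal double-stranded arrays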
- Sequence: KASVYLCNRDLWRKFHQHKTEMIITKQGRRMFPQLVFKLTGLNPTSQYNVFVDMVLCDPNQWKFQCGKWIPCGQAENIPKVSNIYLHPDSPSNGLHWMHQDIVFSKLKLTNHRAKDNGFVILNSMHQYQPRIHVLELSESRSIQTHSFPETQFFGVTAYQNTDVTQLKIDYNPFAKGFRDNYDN
- ASSAY_PROCEDURE: PBM E-score of 8-mer (E-score (dimensionless, -0.5 to 0.5)); Tbr is Tbrain of the sea star Patiria miniata (Pm) or the sea urchin Strongylocentrotus purpuratus (Sp); higher = stronger binding preference
- CONDITION_INFO: target sequence: T-box / the construct has about 5 more residues each side
In all, about 33,000 sequences were measured (“E-score (dimensionless, -0.5 to 0.5)”: median about -0.046, highest 2% from about 0.36 on). For the sample, the highest values were picked, then their nearest neighbours and some sequences at random.
Assign true (1) whenever PBM E-score of 8-mer does not fall below 0.3; assign false (0) whenever it does.

| CHAIN | EXPERIMENTAL_SYSTEM | GROUP_LABEL |
| --- | --- | --- |
| CGCACATC | SpTbr T-box DNA-binding domain (GST fusion) | true (1) |
| GCAGCCCC | SpTbr T-box DNA-binding domain (GST fusion) | false (0) |
| AGCACCGG | SpTbr T-box DNA-binding domain (GST fusion) | false (0) |
| GCTGCCAA | SpTbr T-box DNA-binding domain (GST fusion) | false (0) |
| ATCGCGTA | SpTbr T-box DNA-binding domain (GST fusion) | false (0) |
| ATCGCGAT | SpTbr T-box DNA-binding domain (GST fusion) | true (1) |
| CGTGCCAC | SpTbr T-box DNA-binding domain (GST fusion) | false (0) |
| GCCCACTA | SpTbr T-box DNA-binding domain (GST fusion) | false (0) |
| AAATCGTT | SpTbr T-box DNA-binding domain (GST fusion) | false (0) |
| TGTGCCAA | SpTbr T-box DNA-binding domain (GST fusion) | true (1) |
| TACACGAA | SpTbr T-box DNA-binding domain (GST fusion) | false (0) |
| GGCACCTA | SpTbr T-box DNA-binding domain (GST fusion) | true (1) |
| ACAAAACA | SpTbr T-box DNA-binding domain (GST fusion) | false (0) |
| ACAGCTTC | SpTbr T-box DNA-binding domain (GST fusion) | false (0) |
| CCGTGAAA | SpTbr T-box DNA-binding domain (GST fusion) | false (0) |
| ACGAGGTC | SpTbr T-box DNA-binding domain (GST fusion) | false (0) |
| AGCACCTA | SpTbr T-box DNA-binding domain (GST fusion) | true (1) |
| GTCAAGCA | SpTbr T-box DNA-binding domain (GST fusion) | false (0) |
| AACACATT | SpTbr T-box DNA-binding domain (GST fusion) | true (1) |
| GTCGCGAC | SpTbr T-box DNA-binding domain (GST fusion) | true (1) |
| GGTGCTAA | SpTbr T-box DNA-binding domain (GST fusion) | true (1) |
| AACACATC | SpTbr T-box DNA-binding domain (GST fusion) | true (1) |
| AGGAGGTA | SpTbr T-box DNA-binding domain (GST fusion) | false (0) |
| GGTGCTAC | SpTbr T-box DNA-binding domain (GST fusion) | true (1) |
| AGCGGGCA | SpTbr T-box DNA-binding domain (GST fusion) | false (0) |
| ACCACCTA | SpTbr T-box DNA-binding domain (GST fusion) | false (0) |
| AGTGCTAT | SpTbr T-box DNA-binding domain (GST fusion) | false (0) |
| GACCTTTA | SpTbr T-box DNA-binding domain (GST fusion) | false (0) |
| ATCGCGAA | SpTbr T-box DNA-binding domain (GST fusion) | true (1) |
| AGGAGGTC | SpTbr T-box DNA-binding domain (GST fusion) | false (0) |
| GGAGCCCC | SpTbr T-box DNA-binding domain (GST fusion) | false (0) |
| GACACATC | SpTbr T-box DNA-binding domain (GST fusion) | true (1) |
| AGTAGCGC | SpTbr T-box DNA-binding domain (GST fusion) | false (0) |
| GGTGCCTA | SpTbr T-box DNA-binding domain (GST fusion) | false (0) |
| AGCACCGA | SpTbr T-box DNA-binding domain (GST fusion) | false (0) |
| AACCTTTC | SpTbr T-box DNA-binding domain (GST fusion) | false (0) |
| AGGAGGTG | SpTbr T-box DNA-binding domain (GST fusion) | true (1) |
| GTCGCGAA | SpTbr T-box DNA-binding domain (GST fusion) | true (1) |
| ACGCGCGG | SpTbr T-box DNA-binding domain (GST fusion) | false (0) |
| ATCACATC | SpTbr T-box DNA-binding domain (GST fusion) | false (0) |
| ACACAGTA | SpTbr T-box DNA-binding domain (GST fusion) | false (0) |
| CTGAAGCA | SpTbr T-box DNA-binding domain (GST fusion) | false (0) |
| GGTGCGGA | SpTbr T-box DNA-binding domain (GST fusion) | true (1) |
| TGTGCTAA | SpTbr T-box DNA-binding domain (GST fusion) | false (0) |
| CCGTTAGG | SpTbr T-box DNA-binding domain (GST fusion) | false (0) |
| CCGTGTGA | SpTbr T-box DNA-binding domain (GST fusion) | true (1) |
| CTCCAAGA | SpTbr T-box DNA-binding domain (GST fusion) | false (0) |
| AGCACCGC | SpTbr T-box DNA-binding domain (GST fusion) | false (0) |
| CGGCGATA | SpTbr T-box DNA-binding domain (GST fusion) | false (0) |
| AACACAGC | SpTbr T-box DNA-binding domain (GST fusion) | false (0) |
| CGCACCGC | SpTbr T-box DNA-binding domain (GST fusion) | false (0) |
| AGTAGCCC | SpTbr T-box DNA-binding domain (GST fusion) | false (0) |
| TCCTATCA | SpTbr T-box DNA-binding domain (GST fusion) | false (0) |
| CCGCTACC | SpTbr T-box DNA-binding domain (GST fusion) | false (0) |
| AACCCCGC | SpTbr T-box DNA-binding domain (GST fusion) | false (0) |
| CGTGCTAA | SpTbr T-box DNA-binding domain (GST fusion) | true (1) |
| AAGAGGTA | SpTbr T-box DNA-binding domain (GST fusion) | false (0) |
| GCGTGAAC | SpTbr T-box DNA-binding domain (GST fusion) | true (1) |
| ATTCGCAA | SpTbr T-box DNA-binding domain (GST fusion) | false (0) |
| ACTCCGGA | SpTbr T-box DNA-binding domain (GST fusion) | false (0) |
| GAACTCGA | SpTbr T-box DNA-binding domain (GST fusion) | false (0) |
| ACCACCTC | SpTbr T-box DNA-binding domain (GST fusion) | true (1) |
| AGTACCGG | SpTbr T-box DNA-binding domain (GST fusion) | false (0) |
| ATCGCGAC | SpTbr T-box DNA-binding domain (GST fusion) | false (0) |
| CACACATC | SpTbr T-box DNA-binding domain (GST fusion) | true (1) |
| ACTTTTGA | SpTbr T-box DNA-binding domain (GST fusion) | false (0) |
| ATTGAGGG | SpTbr T-box DNA-binding domain (GST fusion) | false (0) |
| CACCTTTC | SpTbr T-box DNA-binding domain (GST fusion) | true (1) |
| GCGTGACA | SpTbr T-box DNA-binding domain (GST fusion) | true (1) |
| GCGTGAAA | SpTbr T-box DNA-binding domain (GST fusion) | true (1) |
| CCGGACGA | SpTbr T-box DNA-binding domain (GST fusion) | false (0) |
| CTTCGCAC | SpTbr T-box DNA-binding domain (GST fusion) | true (1) |
| ACGAGGTG | SpTbr T-box DNA-binding domain (GST fusion) | true (1) |
| AGTGCGGA | SpTbr T-box DNA-binding domain (GST fusion) | false (0) |
| CGCACCTA | SpTbr T-box DNA-binding domain (GST fusion) | true (1) |
| TTCGCGAA | SpTbr T-box DNA-binding domain (GST fusion) | true (1) |
| CCGTGAGA | SpTbr T-box DNA-binding domain (GST fusion) | false (0) |
| CATGCGCG | SpTbr T-box DNA-binding domain (GST fusion) | false (0) |
| GGTGCCAC | SpTbr T-box DNA-binding domain (GST fusion) | true (1) |
| AGTGCTAG | SpTbr T-box DNA-binding domain (GST fusion) | false (0) |
| CGTGCTAC | SpTbr T-box DNA-binding domain (GST fusion) | false (0) |
| CTCACATA | SpTbr T-box DNA-binding domain (GST fusion) | false (0) |
| CCCGAGGG | SpTbr T-box DNA-binding domain (GST fusion) | false (0) |
| TCAGGCAA | SpTbr T-box DNA-binding domain (GST fusion) | false (0) |
| TAGGGGCA | SpTbr T-box DNA-binding domain (GST fusion) | false (0) |
| AACCTTTA | SpTbr T-box DNA-binding domain (GST fusion) | false (0) |
| CCAGAAGC | SpTbr T-box DNA-binding domain (GST fusion) | false (0) |
| AACACACT | SpTbr T-box DNA-binding domain (GST fusion) | false (0) |
